Below, each entry is listed alongside its reported protein stability index.
# METHOD SUMMARY: protein stability index of a GFP-peptide fusion (yeast GPS) (PSI 1-4); higher = more stable; sorted into four equal gates, so the index is relative within each strain
# RUN PARAMETERS: san1∆

CONSTRUCT SEQUENCE	protein stability index
IGLIALSATGTRSAKKM [YJR042W/NUP85]	3
VLISKLSCEKITHYAVR [RRI1]	1.66
TAIDKNGNITYSEEPRE [FAS2]	3.12
LNSNIRAGVTIPSIPNP [SNF5]	2.5

* * *

# METHOD SUMMARY: protein stability index of a GFP-peptide fusion (yeast GPS) (PSI 1-4); higher = more stable; sorted into four equal gates, so the index is relative within each strain
# RUN PARAMETERS: doa10∆
MEASURE NAME: protein stability index

CONSTRUCT SEQUENCE	MEASURE NAME	RESULT VALUE
DKLTRVHDKIWCCRSGS [PRE3]	protein stability index	2.78
QFTRFFLLVPSKQVQVS [ECM29]	protein stability index	1.27
EGKYIVDVAKDINVKDL [RPT6]	protein stability index	3.44
YFLRRQYILQIVSFIVN [YJL039C/NUP192]	protein stability index	1.2
TDYLYRRLHDENLMVQR [YCS4]	protein stability index	2.44
IFALVFSSNERYFFWLQ [RPN13]	protein stability index	1.25
VKIMRDPAKSRTGPKAL [RPS3]	protein stability index	3.35
GEHEKSNILLNSLTKYP [MED1]	protein stability index	1.45

* * *

Let's look at some sequences and their measured protein stability index.
# METHOD SUMMARY: protein stability index of a GFP-peptide fusion (yeast GPS) (PSI 1-4); higher = more stable; sorted into four equal gates, so the index is relative within each strain
# RUN PARAMETERS: pdr5∆

CONSTRUCT SEQUENCE	protein stability index
LTLRKAKAPSGLDQSRI [FAS1]	2.98
EGDASPFTDITVEGISK [RPB2]	2.97
KNAAESSYMGKHWTEKS [PRP28]	3.24
LEWNMANLLFKKEKLKQ [RPC82]	1.45
ILRDYGPQEAANAMNRM [RPO31]	1.83
RAEALNISGEFFRNKLK [RPL16B]	2.4
LYQTYHVLVGDLIKFSA [FAS1]	2.43
QAHTLYNSVRPFGVSTI [PRE10]	2.74
LVLLNGRLRNKSHKQTI [RPP1]	2.85
ISVIETIRVVTENKIFV [RPN5]	1.82
EDVVAISSRTYGQRAVL [RPS0B]	3.03
STPNFGGNSNKSPPQFF [SIN4]	3.1
RAQRVAEKRDALLKEDA [RPL19A]	3.04
IQFGAKNMFEKKASKVT [ISW2]	2.91
YMDKAKQYDNRITKSNE [LRP1]	2.91
HIKFSAGTEANAVSFDT [SRB4]	2.16
SMKMELLKKELLTIEPK [SMC2]	2.69
DRSKLKKGVRVTLDITT [RPT4]	2.87
FSQKANKTKAVDNTVPS [YOR098C/NUP1]	1.63
QPVNFNRSWDHAYNITF [RPO31]	2.37

* * *

# METHOD SUMMARY: protein stability index of a GFP-peptide fusion (yeast GPS) (PSI 1-4); higher = more stable; sorted into four equal gates, so the index is relative within each strain
# RUN PARAMETERS: san1∆
Please mark fulfilled if the recorded protein stability index is equal to or greater than 3, and not fulfilled if it falls below.

CONSTRUCT SEQUENCE	ANSWER LABEL
FMEAQGAGIQIIMQADL [FAS2]	not fulfilled
IQKESTLHLVLRLRGGG [RPS31]	not fulfilled
ATAEKLPNIYPSTRCKL [RPT2]	not fulfilled
RQLTSLGSKKELGISLE [SNU114]	fulfilled
SRDKTIKVWTIKGQCLA [ASC1]	not fulfilled
QELKADSPFSLICQNNL [SRP72]	not fulfilled
PLSLTHRDKNKMDMICR [DIS3]	fulfilled
VEEKPGDRGALARASGN [RPL2A]	fulfilled
LVEAAKLLKIPKFISEA [YDL116W/NUP84]	not fulfilled
VHPRKSYKMNSSAADIT [PRP8]	not fulfilled
ILDPSTEYCVGDYVAYQ [YMR129W/POM152]	not fulfilled
AKTLTYPEVVTPYNIDR [RPO21]	not fulfilled
ALDTNGTSATTETLTSK [SIR4]	not fulfilled
KSAMDTFKSVSKYGMLL [POP3]	not fulfilled
TSQYGTPSTETAASVFK [PRE3]	not fulfilled
IIFEIEKPLVVPVKLEE [RRP6]	not fulfilled
AEDDVIIPQDILDCVVT [YJR042W/NUP85]	fulfilled
MPRAPRTYSKTYSTPKR [RPS9A]	not fulfilled
FFLQRKLRSELGYKDTS [BRR2]	not fulfilled
QKYWESMRIQILRRQAI [GAL11]	not fulfilled
QPSQQPQQAQQQPNPLH [GAL11]	not fulfilled
TQTVSGTPPMLHQRTHK [DSN1]	not fulfilled
MKYIQTEQQIEVPEGVT [RPL9A]	not fulfilled
ICMESLFLEPSWSSSAA [PCI8]	not fulfilled
AAGSYYVEAQHKLVFVV [RPL7A]	not fulfilled
LSFVDIVLSKAASALDE [SIR4]	not fulfilled
VFERFKTKILEVAIRDV [IRR1]	not fulfilled
FLTNELIRLQMEKLDAK [SWI3]	fulfilled
TVQSWLCDLFVNGSITD [NUT1]	not fulfilled
NEIEGKNEETPQNEKPP [RPC25]	not fulfilled
QQQQQQQQQQQQQQQQH [GAL11]	not fulfilled
RAVKEIKKFAKLHMGTD [RPL31A]	not fulfilled
HVQFRLGNVDAFQLADG [PRP8]	not fulfilled
RKQIQLLKKIIFEKELM [SRB4]	not fulfilled
TGNFIIPSGNVWNYTFM [PRP8]	not fulfilled
DKFFNEVNKSELYLTAE [SIR3]	fulfilled
FDIIEESFKGLQPFWFR [ECM29]	not fulfilled
IPAWFLNRQNDITDGKD [RPS18A]	not fulfilled
MSLPATFDLTPEDAQLL [RPS0A]	not fulfilled
